A collection of binders and their measured % of Max VEGF KDR pTyr Activity (at 133 nM antibody concentration), N = 2
Biological target: KDR (human, UniProt P35968 20-1356)
Sequence (P35968 20-1356): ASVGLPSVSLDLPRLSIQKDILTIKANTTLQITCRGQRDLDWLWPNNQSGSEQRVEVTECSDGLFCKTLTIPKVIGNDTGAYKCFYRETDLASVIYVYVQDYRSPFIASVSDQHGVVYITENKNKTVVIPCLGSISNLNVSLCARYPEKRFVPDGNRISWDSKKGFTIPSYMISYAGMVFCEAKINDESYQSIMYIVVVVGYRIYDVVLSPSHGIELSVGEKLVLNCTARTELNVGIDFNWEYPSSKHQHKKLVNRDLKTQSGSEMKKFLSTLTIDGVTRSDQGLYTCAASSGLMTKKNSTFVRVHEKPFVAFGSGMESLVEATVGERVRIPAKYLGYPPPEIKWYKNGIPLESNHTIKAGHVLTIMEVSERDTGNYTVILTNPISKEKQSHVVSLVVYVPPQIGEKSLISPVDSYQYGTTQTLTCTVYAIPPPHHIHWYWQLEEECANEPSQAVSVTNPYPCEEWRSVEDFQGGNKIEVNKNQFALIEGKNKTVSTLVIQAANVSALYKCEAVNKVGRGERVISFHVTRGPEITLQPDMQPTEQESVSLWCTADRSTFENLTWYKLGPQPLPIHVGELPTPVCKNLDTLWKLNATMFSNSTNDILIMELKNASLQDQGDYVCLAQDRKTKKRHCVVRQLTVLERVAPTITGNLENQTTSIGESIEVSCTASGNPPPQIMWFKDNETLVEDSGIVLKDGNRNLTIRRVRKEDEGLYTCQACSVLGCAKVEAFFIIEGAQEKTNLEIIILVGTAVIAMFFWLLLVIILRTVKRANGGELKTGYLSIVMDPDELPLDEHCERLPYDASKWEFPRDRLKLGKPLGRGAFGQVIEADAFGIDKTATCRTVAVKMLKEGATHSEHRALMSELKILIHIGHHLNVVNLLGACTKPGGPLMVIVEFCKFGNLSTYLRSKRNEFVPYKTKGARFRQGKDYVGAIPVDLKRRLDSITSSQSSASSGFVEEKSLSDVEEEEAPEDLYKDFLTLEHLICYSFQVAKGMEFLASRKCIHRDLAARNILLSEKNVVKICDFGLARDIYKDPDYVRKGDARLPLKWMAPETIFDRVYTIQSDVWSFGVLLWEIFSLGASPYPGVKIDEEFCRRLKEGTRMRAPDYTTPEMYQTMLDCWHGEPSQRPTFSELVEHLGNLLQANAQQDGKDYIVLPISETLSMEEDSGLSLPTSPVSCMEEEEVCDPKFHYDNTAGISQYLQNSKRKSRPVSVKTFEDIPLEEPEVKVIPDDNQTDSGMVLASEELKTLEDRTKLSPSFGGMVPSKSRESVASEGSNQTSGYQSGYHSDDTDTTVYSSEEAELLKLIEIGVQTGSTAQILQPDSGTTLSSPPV
Experiment: cell-based or functional assay
quantity.name: % of Max VEGF KDR pTyr Activity (at 133 nM antibody concentration), N = 2 (%)

binder: 29A3 (antibody, V domains shown) VH: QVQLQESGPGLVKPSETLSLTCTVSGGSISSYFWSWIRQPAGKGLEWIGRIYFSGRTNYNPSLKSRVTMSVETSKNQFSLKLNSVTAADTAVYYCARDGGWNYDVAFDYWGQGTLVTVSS VL: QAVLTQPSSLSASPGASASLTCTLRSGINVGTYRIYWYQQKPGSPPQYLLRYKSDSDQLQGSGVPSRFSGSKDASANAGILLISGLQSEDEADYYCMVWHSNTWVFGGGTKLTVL
reading: 17
//
binder: 24B3 (antibody, V domains shown) VH: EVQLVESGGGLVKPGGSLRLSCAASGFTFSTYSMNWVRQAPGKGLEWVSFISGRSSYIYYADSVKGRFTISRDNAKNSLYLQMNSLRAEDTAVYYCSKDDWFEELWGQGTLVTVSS VL: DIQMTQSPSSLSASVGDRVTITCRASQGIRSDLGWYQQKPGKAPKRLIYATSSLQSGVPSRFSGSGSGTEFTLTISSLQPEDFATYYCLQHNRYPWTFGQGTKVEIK
reading: 15
